Below are IC50 values measured for Acetylcholinesterase (Homo sapiens, UniProt P22303).

MOLECULE | ENDPOINT UNIT | IC50
COc1ccc(C(C)NS(=O)(=O)NC(=O)OCc2ccccc2)cc1OC (stereo not given) | nM | 0.0269
COc1ccc(OC)c(C(C)NS(N)(=O)=O)c1 (stereo not given) | nM | 0.0269
COc1cccc(OC)c1C(C)NS(N)(=O)=O (stereo not given) | nM | 0.0269
COc1ccc(C(C)NS(N)(=O)=O)cc1 (stereo not given) | nM | 0.0269
COc1ccc(C(C)NS(N)(=O)=O)cc1OC (stereo not given) | nM | 0.0269
COc1ccc(OC)c(C(C)NS(=O)(=O)NC(=O)OCc2ccccc2)c1 (stereo not given) | nM | 0.0269
COc1ccc(C(C)NS(=O)(=O)NC(=O)OCc2ccccc2)cc1 (stereo not given) | nM | 0.0269
COc1cccc(OC)c1C(C)NS(=O)(=O)NC(=O)OCc1ccccc1 (stereo not given) | nM | 0.0269
COc1ccccc1C(C)NS(N)(=O)=O (stereo not given) | nM | 0.0269
COc1ccccc1C(C)NS(=O)(=O)NC(=O)OCc1ccccc1 (stereo not given) | nM | 0.0269
